Test: Half life in rat at 10 mg/kg, ip
Assay type: ADME, organism-based
Settings: in vivo
metric: half-life

smilesdata=N[C@]1(C(=O)O)[C@@H]2[C@@H](C(=O)O)[C@@H]2[C@H](O)[C@H]1OCc1ccc(Cl)c(Cl)c1 metric=half-life reportedvalue="4.48 h"

* * *

Biological target: Metabotropic glutamate receptor 3 (Homo sapiens, UniProt Q14832)
Sequence (Q14832 whole entry): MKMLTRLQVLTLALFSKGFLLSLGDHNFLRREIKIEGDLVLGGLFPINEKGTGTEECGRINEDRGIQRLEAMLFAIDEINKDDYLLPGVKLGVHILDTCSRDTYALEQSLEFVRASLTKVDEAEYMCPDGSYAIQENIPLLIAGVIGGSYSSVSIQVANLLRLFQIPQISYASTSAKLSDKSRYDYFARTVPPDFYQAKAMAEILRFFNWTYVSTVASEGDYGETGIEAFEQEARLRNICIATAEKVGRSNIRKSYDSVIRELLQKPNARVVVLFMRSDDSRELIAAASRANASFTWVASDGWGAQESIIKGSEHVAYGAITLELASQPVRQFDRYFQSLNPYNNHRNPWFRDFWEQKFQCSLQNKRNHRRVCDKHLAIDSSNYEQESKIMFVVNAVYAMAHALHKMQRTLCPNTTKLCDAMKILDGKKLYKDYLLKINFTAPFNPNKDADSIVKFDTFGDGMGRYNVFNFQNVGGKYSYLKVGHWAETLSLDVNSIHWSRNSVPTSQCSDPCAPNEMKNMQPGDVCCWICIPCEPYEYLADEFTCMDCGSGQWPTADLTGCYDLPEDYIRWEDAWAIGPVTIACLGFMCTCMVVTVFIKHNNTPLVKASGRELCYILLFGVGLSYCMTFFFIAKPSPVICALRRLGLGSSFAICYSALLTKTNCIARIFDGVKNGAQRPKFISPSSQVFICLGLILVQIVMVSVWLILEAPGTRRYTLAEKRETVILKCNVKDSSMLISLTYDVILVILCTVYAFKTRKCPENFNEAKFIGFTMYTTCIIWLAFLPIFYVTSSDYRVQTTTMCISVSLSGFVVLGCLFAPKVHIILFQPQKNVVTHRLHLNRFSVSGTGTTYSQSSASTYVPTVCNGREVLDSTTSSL
Experiment: Antagonist activity at recombinant human mGlu3 receptor expressed in hamster AV12 cells co-expressing human EAAT1 assessed as reduction of DCG-4-inhibited forskolin-stimulated cAMP formation after 20 mins by HTRF assay
pIC50: −log10 of the molar value.
pIC50 overview
metric: pIC50

molecule=N[C@]1(C(=O)O)[C@@H]2[C@@H](C(=O)O)[C@@H]2[C@H](Sc2ncc[nH]2)[C@H]1OCc1ccc(Cl)c(Cl)c1 metric=pIC50 reportedvalue=7.41
molecule=N[C@]1(C(=O)O)[C@@H]2[C@@H](C(=O)O)[C@@H]2[C@H](Sc2nc[nH]n2)[C@H]1OCc1ccc(Cl)c(Cl)c1 metric=pIC50 reportedvalue=7.63
molecule="N[C@@]1(C(=O)O)[C@H](Cc2ccc(F)c(Cl)c2)C[C@H]2[C@H](C(=O)O)[C@H]21 (racemic)" metric=pIC50 reportedvalue=7.12
molecule=N[C@H]1[C@H]2[C@H](C(=O)O)[C@H]2[C@](N)(C(=O)O)[C@@H]1OCc1ccc(Cl)c(Cl)c1 metric=pIC50 reportedvalue=5.97
molecule=N[C@]1(C(=O)O)[C@@H]2[C@@H](C(=O)O)[C@@H]2[C@H](O)[C@H]1OCc1ccc(Cl)c(Cl)c1 metric=pIC50 reportedvalue=7.34
molecule=Cc1cc(CO[C@@H]2[C@H](O)[C@H]3[C@H](C(=O)O)[C@H]3[C@]2(N)C(=O)O)ccc1F metric=pIC50 reportedvalue=7.07
molecule=N[C@]1(C(=O)O)[C@@H]2[C@@H](C(=O)O)[C@@H]2[C@@H](O)[C@H]1OCc1cccc(Cl)c1Cl metric=pIC50 reportedvalue=7.08
molecule=N[C@]1(C(=O)O)[C@@H]2[C@@H](C(=O)O)[C@@H]2[C@@H](O)[C@H]1OCc1cc(Cl)ccc1Cl metric=pIC50 reportedvalue=6.73
molecule=N[C@]1(C(=O)O)[C@@H]2[C@@H](C(=O)O)[C@@H]2[C@@H](O)[C@H]1OCc1ccc(Cl)c(F)c1 metric=pIC50 reportedvalue=6.90
molecule=N[C@]1(C(=O)O)[C@@H]2[C@@H](C(=O)O)[C@@H]2[C@@H](O)[C@H]1OCc1ccccc1 metric=pIC50 reportedvalue=6.62
molecule=N[C@]1(C(=O)O)[C@@H]2[C@@H](C(=O)O)[C@@H]2[C@@H](O)[C@H]1OCc1ccc(Cl)c(Cl)c1 metric=pIC50 reportedvalue=6.82

* * *

Molecular target: UniProtKB Q14833
Sequence (Q14833 whole entry): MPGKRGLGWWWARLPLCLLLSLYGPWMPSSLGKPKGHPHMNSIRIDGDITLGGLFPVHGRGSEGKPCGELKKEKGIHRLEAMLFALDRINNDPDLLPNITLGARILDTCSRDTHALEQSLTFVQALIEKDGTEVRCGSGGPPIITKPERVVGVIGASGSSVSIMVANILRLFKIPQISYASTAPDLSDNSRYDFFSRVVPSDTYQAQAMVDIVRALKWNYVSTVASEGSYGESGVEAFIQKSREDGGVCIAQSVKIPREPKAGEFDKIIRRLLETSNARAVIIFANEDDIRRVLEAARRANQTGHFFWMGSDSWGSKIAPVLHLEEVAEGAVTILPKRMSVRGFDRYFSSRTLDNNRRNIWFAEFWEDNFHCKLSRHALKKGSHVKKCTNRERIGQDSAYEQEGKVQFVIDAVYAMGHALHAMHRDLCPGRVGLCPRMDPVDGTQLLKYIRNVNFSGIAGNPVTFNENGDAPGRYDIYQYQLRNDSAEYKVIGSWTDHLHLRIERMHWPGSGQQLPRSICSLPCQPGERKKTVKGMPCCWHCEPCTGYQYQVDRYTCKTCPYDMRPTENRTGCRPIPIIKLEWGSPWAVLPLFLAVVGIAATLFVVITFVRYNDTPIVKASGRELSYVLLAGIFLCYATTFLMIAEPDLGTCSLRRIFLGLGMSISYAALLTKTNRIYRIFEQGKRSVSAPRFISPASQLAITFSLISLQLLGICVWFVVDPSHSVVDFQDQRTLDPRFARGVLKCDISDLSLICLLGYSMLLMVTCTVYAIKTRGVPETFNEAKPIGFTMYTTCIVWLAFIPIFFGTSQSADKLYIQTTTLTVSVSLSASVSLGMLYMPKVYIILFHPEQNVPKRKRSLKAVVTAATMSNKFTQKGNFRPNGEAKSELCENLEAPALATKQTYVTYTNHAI
Experiment: Agonist activity at recombinant human mGlu4 receptor expressed in hamster AV12 cells co-expressing human EAAT1/Galpha1s assessed as increase in Ca2+ flux by Fluo-3-AM dye based FLIPR assay
metric: EC50

smilesdata=N[C@]1(C(=O)O)[C@@H]2[C@@H](C(=O)O)[C@@H]2[C@H](O)[C@H]1OCc1ccc(Cl)c(Cl)c1 studysystem="UniProtKB Q14833" reportedvalue="> 25 µM"

* * *

Assay: AUC (0 to 24 hrs) in rat at 10 mg/kg, ip
Type: ADME, organism-based
Design: dose 10 mg/kg, time < 24 hr, route intraperitoneal
Settings: in vivo
metric: AUC(0-t) at 24 h (µM·h)

smilesdata=N[C@]1(C(=O)O)[C@@H]2[C@@H](C(=O)O)[C@@H]2[C@H](O)[C@H]1OCc1ccc(Cl)c(Cl)c1 metric="AUC(0-t) at 24 h" unitabbreviation=µM·h reportedvalue=116

* * *

Target: hERG (KCNH2) (Homo sapiens)
Sequence (Q12809 whole entry): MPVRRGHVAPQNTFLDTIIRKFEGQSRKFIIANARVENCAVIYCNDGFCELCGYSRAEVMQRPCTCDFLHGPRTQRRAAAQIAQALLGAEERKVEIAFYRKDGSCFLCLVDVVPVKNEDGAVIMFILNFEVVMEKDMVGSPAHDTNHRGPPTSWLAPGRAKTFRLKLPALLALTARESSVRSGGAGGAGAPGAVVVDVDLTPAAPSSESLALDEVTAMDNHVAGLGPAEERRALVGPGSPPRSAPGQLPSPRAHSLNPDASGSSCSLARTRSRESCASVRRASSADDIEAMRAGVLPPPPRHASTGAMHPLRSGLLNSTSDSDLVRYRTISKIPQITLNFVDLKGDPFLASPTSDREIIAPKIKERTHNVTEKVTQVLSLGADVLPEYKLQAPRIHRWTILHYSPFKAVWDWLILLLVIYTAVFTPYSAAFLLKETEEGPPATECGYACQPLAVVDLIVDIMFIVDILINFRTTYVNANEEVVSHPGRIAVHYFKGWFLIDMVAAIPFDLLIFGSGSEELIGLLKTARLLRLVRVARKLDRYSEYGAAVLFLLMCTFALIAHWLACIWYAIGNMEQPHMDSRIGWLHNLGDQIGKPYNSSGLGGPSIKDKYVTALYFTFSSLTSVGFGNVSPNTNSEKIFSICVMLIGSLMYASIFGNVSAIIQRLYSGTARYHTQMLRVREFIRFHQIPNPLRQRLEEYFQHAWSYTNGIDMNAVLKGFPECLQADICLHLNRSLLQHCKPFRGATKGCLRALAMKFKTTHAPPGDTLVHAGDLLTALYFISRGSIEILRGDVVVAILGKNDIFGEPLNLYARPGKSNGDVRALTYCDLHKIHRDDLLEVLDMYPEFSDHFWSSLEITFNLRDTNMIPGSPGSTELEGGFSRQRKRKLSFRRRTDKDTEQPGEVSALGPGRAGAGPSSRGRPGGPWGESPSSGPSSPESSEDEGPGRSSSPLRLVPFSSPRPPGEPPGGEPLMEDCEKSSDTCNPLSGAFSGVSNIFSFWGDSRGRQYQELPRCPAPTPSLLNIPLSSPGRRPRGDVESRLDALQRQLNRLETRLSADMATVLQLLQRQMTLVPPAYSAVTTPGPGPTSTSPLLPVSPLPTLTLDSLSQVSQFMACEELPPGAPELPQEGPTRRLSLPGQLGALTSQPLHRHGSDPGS
Experiment: Displacement of [3H]-Astemizole from human ERG at 100 uM by membrane binding assay
Settings: membranes with human ERG, probe [3H]-Astemizole
metric: inhibition at 100 µM (%)

smilesdata=N[C@]1(C(=O)O)[C@@H]2[C@@H](C(=O)O)[C@@H]2[C@H](O)[C@H]1OCc1ccc(Cl)c(Cl)c1 studysystem="hERG (KCNH2) (Homo sapiens)" unitabbreviation=% reportedvalue=13

* * *

Target: UniProt Q13255
Experiment: Agonist activity at recombinant human mGlu1 receptor expressed in hamster AV12 cells co-expressing human EAAT1/Galpha1s assessed as increase in Ca2+ flux by Fluo-3-AM dye based FLIPR assay
pEC50: −log10 of the molar value.
metric: pEC50

smilesdata=N[C@]1(C(=O)O)[C@@H]2[C@@H](C(=O)O)[C@@H]2[C@H](O)[C@H]1OCc1ccc(Cl)c(Cl)c1 studysystem="UniProt Q13255" reportedvalue="< 4.60"

* * *

Assay: Drug metabolism in rat microsomes at 4 uM after 30 mins
Type: ADME, Microsome
Settings: read-out: Drug metabolism
metric: metabolised at 0.5 h, 4 µM

smilesdata=N[C@]1(C(=O)O)[C@@H]2[C@@H](C(=O)O)[C@@H]2[C@H](O)[C@H]1OCc1ccc(Cl)c(Cl)c1 reportedvalue="< 20%"

* * *

Target: Metabotropic glutamate receptor 6 (Homo sapiens, UniProt O15303)
Sequence (O15303 whole entry): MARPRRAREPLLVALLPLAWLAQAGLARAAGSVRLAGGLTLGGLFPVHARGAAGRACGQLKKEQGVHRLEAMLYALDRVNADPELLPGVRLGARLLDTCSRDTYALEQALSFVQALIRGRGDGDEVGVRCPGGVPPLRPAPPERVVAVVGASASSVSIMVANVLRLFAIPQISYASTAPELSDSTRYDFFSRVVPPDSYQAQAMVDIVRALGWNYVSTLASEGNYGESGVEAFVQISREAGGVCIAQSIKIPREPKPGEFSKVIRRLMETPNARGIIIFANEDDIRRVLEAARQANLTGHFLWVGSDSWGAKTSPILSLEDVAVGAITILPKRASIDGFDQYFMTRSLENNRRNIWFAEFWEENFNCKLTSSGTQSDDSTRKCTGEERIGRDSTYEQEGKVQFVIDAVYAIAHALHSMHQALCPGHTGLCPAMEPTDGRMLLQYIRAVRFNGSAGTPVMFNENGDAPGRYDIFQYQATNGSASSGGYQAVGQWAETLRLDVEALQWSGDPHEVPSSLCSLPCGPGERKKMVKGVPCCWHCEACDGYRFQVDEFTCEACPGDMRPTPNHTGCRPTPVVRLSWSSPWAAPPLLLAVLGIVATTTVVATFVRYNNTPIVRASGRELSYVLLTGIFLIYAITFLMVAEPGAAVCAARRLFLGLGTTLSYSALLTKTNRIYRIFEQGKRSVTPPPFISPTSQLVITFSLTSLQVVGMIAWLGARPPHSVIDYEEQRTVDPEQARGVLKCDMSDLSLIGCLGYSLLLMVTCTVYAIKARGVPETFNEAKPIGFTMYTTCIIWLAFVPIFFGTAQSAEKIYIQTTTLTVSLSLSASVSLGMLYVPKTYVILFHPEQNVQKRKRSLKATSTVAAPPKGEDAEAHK
Assay: Agonist activity at recombinant human mGlu6 receptor expressed in hamster AV12 cells co-expressing EAAT1 assessed as induction of forskolin-stimulated cAMP formation after 20 mins by HTRF assay
pEC50: −log10 of the molar value.
metric: pEC50

smilesdata=N[C@]1(C(=O)O)[C@@H]2[C@@H](C(=O)O)[C@@H]2[C@H](O)[C@H]1OCc1ccc(Cl)c(Cl)c1 metric=pEC50 reportedvalue="< 4.90"

* * *

Biological target: Metabotropic glutamate receptor 2 (Homo sapiens, UniProt Q14416)
Sequence (Q14416 whole entry): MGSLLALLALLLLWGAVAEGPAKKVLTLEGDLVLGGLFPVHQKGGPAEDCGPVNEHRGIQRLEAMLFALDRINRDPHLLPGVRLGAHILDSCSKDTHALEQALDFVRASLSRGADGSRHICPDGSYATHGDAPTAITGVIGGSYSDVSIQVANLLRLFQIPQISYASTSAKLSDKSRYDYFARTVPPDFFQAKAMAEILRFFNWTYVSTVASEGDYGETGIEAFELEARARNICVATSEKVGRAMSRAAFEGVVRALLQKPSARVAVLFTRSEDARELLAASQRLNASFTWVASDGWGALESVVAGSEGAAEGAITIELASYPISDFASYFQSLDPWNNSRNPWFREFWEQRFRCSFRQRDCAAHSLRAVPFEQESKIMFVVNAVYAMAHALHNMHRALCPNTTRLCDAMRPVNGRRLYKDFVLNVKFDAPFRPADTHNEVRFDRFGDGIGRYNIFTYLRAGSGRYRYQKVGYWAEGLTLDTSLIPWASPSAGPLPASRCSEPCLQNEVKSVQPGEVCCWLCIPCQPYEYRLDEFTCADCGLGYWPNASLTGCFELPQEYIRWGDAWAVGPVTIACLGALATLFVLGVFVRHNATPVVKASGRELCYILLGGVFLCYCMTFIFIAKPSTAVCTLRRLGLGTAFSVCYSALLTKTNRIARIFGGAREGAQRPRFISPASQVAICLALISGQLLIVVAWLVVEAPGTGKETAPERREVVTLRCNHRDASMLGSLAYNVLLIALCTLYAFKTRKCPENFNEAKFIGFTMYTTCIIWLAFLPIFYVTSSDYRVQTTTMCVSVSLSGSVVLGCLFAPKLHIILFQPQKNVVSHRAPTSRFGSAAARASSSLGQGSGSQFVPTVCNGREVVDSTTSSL
Assay: Agonist activity at recombinant human mGlu2 receptor expressed in hamster AV12 cells co-expressing human EAAT1 assessed as increase in forskolin-stimulated cAMP formation up to 25 uM after 20 mins by HTRF assay
pEC50: −log10 of the molar value.
metric: pEC50

smilesdata=N[C@]1(C(=O)O)[C@@H]2[C@@H](C(=O)O)[C@@H]2[C@H](O)[C@H]1OCc1ccc(Cl)c(Cl)c1 metric=pEC50 reportedvalue="< 4.60"

* * *

Assay: Plasma concentration in NIH Swiss Webster mouse at 1 mg/kg, ip at 30 mins
Type: ADME, organism-based
metric: concentration at 0.5 h (µM)

smilesdata=N[C@]1(C(=O)O)[C@@H]2[C@@H](C(=O)O)[C@@H]2[C@H](O)[C@H]1OCc1ccc(Cl)c(Cl)c1 unitabbreviation=µM reportedvalue=4.81

* * *

Biological target: Metabotropic glutamate receptor 2 (Homo sapiens, UniProt Q14416)
Experiment: Antagonist activity at recombinant human mGlu2 receptor expressed in hamster AV12 cells co-expressing human EAAT1 assessed as reduction of DCG-4-inhibited forskolin-stimulated cAMP formation after 20 mins by HTRF assay
metric: IC50 (nM)

smilesdata=N[C@H]1[C@H]2[C@H](C(=O)O)[C@H]2[C@](N)(C(=O)O)[C@@H]1OCc1ccc(Cl)c(Cl)c1 metric=IC50 reportedvalue=1130
smilesdata=Cn1ncnc1S[C@H]1[C@H]2[C@H](C(=O)O)[C@H]2[C@](N)(C(=O)O)[C@@H]1OCc1ccc(Cl)c(Cl)c1 metric=IC50 reportedvalue=19.9
smilesdata=COC(=O)N[C@H]1[C@H]2[C@H](C(=O)O)[C@H]2[C@](N)(C(=O)O)[C@@H]1OCc1ccc(Cl)c(Cl)c1 metric=IC50 reportedvalue=18.8
